- Target Of Assay: T1, Qk-1-STAR (mouse, UniProt Q9QYS9 7-214)
- T1 sequence: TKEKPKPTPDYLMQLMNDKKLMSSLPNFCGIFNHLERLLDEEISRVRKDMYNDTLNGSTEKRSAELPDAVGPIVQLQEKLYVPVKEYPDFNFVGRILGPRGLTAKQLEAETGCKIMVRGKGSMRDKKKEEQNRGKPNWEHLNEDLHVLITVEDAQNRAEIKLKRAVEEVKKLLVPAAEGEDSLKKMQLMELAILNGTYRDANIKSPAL
- Assay Protocol: EMSA; 10 mM Tris pH 8.0, 25 mM NaCl, 0.1 mM EDTA, 0.1 mg/mL tRNA, 5 ug/mL heparin, 0.01% IGEPAL CA630, room temperature, 3 h; EMSA gel 6% native, 0.5x TBE, 4 C
- Reported Conditions: protein: recombinant; tags: MBP fusion; chain copies: 2; label: 5' 32P
Measured Parameter: pKd
// field semantics: pKd = negative decimal log of concentration (mol/L)

Binder	pKd
UAUUCUCUUUCUUAUCUACUAAUAUCUA (ssRNA) [C21A TGE 5' mutant]	8.15

Next binder, pKd to be filled in.
Enquiry: Which pKd value is on record for GACACUCUCUCCUCGGUGGAAAAAUAACCAU (ssRNA) [MBP:2-5'm2] ?
Return: 7.00

Reference source: paper PMC2905418
